IC50 overview
test system: Plasmodium falciparum; experiment: Antimalarial activity against chloroquine-sensitive Plasmodium falciparum D6 assessed as inhibition of [3H]hypoxanthine incorporation after 96 hrs by microtiter plate scintillation counting; type: functional, organism-based

Sample answers from the record:
Structure	Assay System	IC50
CC[C@H]1OC(=O)[C@H](C)[C@@H](O[C@H]2C[C@@](C)(OC)[C@@H](O)[C@H](C)O2)[C@H](C)[C@@H](O[C@@H]2O[C@H](C)C[C@H](N(C)C)[C@H]2O)[C@](C)(O)C[C@@H](C)CN(CCCNC(=O)NCC2CCCCC2)[C@H](C)[C@@H](O)[C@]1(C)O	Plasmodium falciparum	610 nM
CC[C@H]1OC(=O)[C@H](C)[C@@H](O[C@H]2C[C@@](C)(OC)[C@@H](O)[C@H](C)O2)[C@H](C)[C@@H](O[C@@H]2O[C@H](C)C[C@H](N(C)C)[C@H]2O)[C@](C)(O)C[C@@H](C)CN(CCCNC(=S)Nc2ccc(-n3cccn3)cc2)[C@H](C)[C@@H](O)[C@]1(C)O	Plasmodium falciparum	160 nM
CC[C@H]1OC(=O)[C@H](C)[C@@H](O[C@H]2C[C@@](C)(OC)[C@@H](O)[C@H](C)O2)[C@H](C)[C@@H](O[C@@H]2O[C@H](C)C[C@H](N(C)C)[C@H]2O)[C@](C)(O)C[C@@H](C)CN(CCCNC(=O)NC(C)(C)CC(C)(C)C)[C@H](C)[C@@H](O)[C@]1(C)O	Plasmodium falciparum	269 nM
CC[C@H]1OC(=O)[C@H](C)[C@@H](O[C@H]2C[C@@](C)(OC)[C@@H](O)[C@H](C)O2)[C@H](C)[C@@H](O[C@@H]2O[C@H](C)C[C@H](N(C)C)[C@H]2O)[C@](C)(O)C[C@@H](C)CN(CCCNC(=S)Nc2c(F)cccc2F)[C@H](C)[C@@H](O)[C@]1(C)O	Plasmodium falciparum	509 nM
CC[C@H]1OC(=O)[C@H](C)[C@@H](O[C@H]2C[C@@](C)(OC)[C@@H](O)[C@H](C)O2)[C@H](C)[C@@H](O[C@@H]2O[C@H](C)C[C@H](N(C)C)[C@H]2O)[C@](C)(O)C[C@@H](C)CN(CCCNC(=O)Nc2cc(F)ccc2C)[C@H](C)[C@@H](O)[C@]1(C)O	Plasmodium falciparum	396 nM
CC[C@H]1OC(=O)[C@H](C)[C@@H](O[C@H]2C[C@@](C)(OC)[C@@H](O)[C@H](C)O2)[C@H](C)[C@@H](O[C@@H]2O[C@H](C)C[C@H](N(C)C)[C@H]2O)[C@](C)(O)C[C@@H](C)CN(CCCNC(=S)Nc2ccc3c(c2)OCO3)[C@H](C)[C@@H](O)[C@]1(C)O	Plasmodium falciparum	329 nM
CC[C@H]1OC(=O)[C@H](C)[C@@H](O[C@H]2C[C@@](C)(OC)[C@@H](O)[C@H](C)O2)[C@H](C)[C@@H](O[C@@H]2O[C@H](C)C[C@H](N(C)C)[C@H]2O)[C@](C)(O)C[C@@H](C)CN(CCCNC(=O)Nc2c(C)noc2C)[C@H](C)[C@@H](O)[C@]1(C)O	Plasmodium falciparum	12800 nM
CC[C@H]1OC(=O)[C@H](C)[C@@H](O[C@H]2C[C@@](C)(OC)[C@@H](O)[C@H](C)O2)[C@H](C)[C@@H](O[C@@H]2O[C@H](C)C[C@H](N(C)C)[C@H]2O)[C@](C)(O)C[C@@H](C)CN(CCCNC(=O)Nc2cc(C)oc2C(F)(F)F)[C@H](C)[C@@H](O)[C@]1(C)O	Plasmodium falciparum	361 nM
CC[C@H]1OC(=O)[C@H](C)[C@@H](O[C@H]2C[C@@](C)(OC)[C@@H](O)[C@H](C)O2)[C@H](C)[C@@H](O[C@@H]2O[C@H](C)C[C@H](N(C)C)[C@H]2O)[C@](C)(O)C[C@@H](C)CN(CCCNC(=O)Nc2cccc(SC)c2)[C@H](C)[C@@H](O)[C@]1(C)O	Plasmodium falciparum	332 nM
CC[C@H]1OC(=O)[C@H](C)[C@@H](O[C@H]2C[C@@](C)(OC)[C@@H](O)[C@H](C)O2)[C@H](C)[C@@H](O[C@@H]2O[C@H](C)C[C@H](N(C)C)[C@H]2O)[C@](C)(O)C[C@@H](C)CN(CCCNC(=O)Nc2ccc(C(C)=O)cc2)[C@H](C)[C@@H](O)[C@]1(C)O	Plasmodium falciparum	1730 nM

Req: Request - read-out IC50 | tested on Plasmodium falciparum | compound `CC[C@H]1OC(=O)[C@H](C)[C@@H](O[C@H]2C[C@@](C)(OC)[C@@H](O)[C@H](C)O2)[C@H](C)[C@@H](O[C@@H]2O[C@H](C)C[C@H](N(C)C)[C@H]2O)[C@](C)(O)C[C@@H](C)CN(CCCNC(=O)Nc2ccc(C#N)cc2)[C@H](C)[C@@H](O)[C@]1(C)O`
Resp: 386 nM
